# SUBJECT OF TEST: Bile acid receptor (Homo sapiens) (UniProt Q96RI1)
# Sequence (Q96RI1 whole entry, looked up): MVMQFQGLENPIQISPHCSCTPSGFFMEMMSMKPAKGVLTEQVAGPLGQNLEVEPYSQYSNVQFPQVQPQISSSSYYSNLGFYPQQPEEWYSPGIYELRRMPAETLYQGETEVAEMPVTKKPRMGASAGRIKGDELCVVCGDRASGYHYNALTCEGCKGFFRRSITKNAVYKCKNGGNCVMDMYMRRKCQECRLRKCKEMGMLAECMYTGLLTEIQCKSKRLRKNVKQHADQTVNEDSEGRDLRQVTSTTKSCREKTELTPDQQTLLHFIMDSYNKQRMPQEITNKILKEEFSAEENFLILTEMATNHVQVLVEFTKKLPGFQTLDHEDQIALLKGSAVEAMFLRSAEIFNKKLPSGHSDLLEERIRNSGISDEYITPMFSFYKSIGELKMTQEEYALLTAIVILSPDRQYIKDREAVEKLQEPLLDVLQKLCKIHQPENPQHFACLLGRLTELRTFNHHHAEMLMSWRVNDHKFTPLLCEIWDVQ
# MEASUREMENT NOTES: ATG_IR1_CIS: Attagene CIS-FACTORIAL HepG2 Assay for human Nuclear Receptor Subfamily 1 Group H Member 4 (NR1H4), IR1 submotif (AID 2282946)
# CONDITIONS USED: IR1 reporter transcription, actives raise or lower the signal
Activity calls are given as the source filed them. Rule for the calls: active = hit-call score of the fitted dose curve at least 0.9, where 1 is the maximum; inactive = score below 0.9.
# output must be one of active, inactive

The examples below pair each entry with its known result.
- CC(C)[N+](=O)[O-]: inactive
- O=C1C=CC(=O)c2ccccc21: inactive

Prompt line: What call does the record list for C1CCC(C2CCCCC2)CC1 ?
Response line: inactive

Prompt line: What call does the record list for OC(Cc1ccccc1Cl)(Cn1[nH]cnc1=S)C1(Cl)CC1 (stereo not given) ?
Response line: inactive

Prompt line: What call does the record list for C=CCN=C=S ?
Response line: inactive

* * *

# Read-out: Monokine induced gamma interferon (MIG), CXCL9 (gene 4283)
# MEASUREMENT NOTES: BSK_3C_MIG: BioMAP Diversity Plus: 3C Assay for Monokine induced gamma interferon (MIG) Biomarker Activity (AID 2283021)
# CONDITIONS USED: primary human endothelial cells (HUVEC); actives raise or lower the signal
# Experimental: BSK_3C is a cell-based, multiplexed-readout assay that uses umbilical vein endothelium, a human vascular primary cell, with measurements taken at 24 hours after chemical dosing in a 96-well plate.BSK_3C_MIG is an assay component measured in the BSK_3C assay. It measures MIG antibody related to regulation of gene expression using ELISA technology.Data from the assay component BSK_3C_MIG was analyzed into 1 assay endpoint. […]
Calls of active or inactive are those of the source. The calls were made as follows: active = hit-call score of the fitted dose curve at least 0.9, where 1 is the maximum; inactive = score below 0.9.
# output must be one of active, inactive

The examples below pair each entry with its known result.
• Cc1ccccc1OP(=O)(Oc1ccccc1C)Oc1ccccc1C = inactive
• C#CCOC(=O)/C=C(C)/C=C/CC(C)CCCC(C)C (configuration not stated) = inactive
• CCOP(=S)(OCC)SCS(=O)(=O)C(C)(C)C = inactive
• CC(C=O)Cc1ccc2c(c1)OCO2 (configuration not stated) = inactive
• N#CCCC(Br)(C#N)CBr (configuration not stated) = active

Prompt line: What call does the record list for Cc1cc(Cl)ccc1N ?
Response line: inactive

Prompt line: What call does the record list for CC(C)N(C(=O)CCl)c1ccccc1 ?
Response line: active

* * *

# Read-out: Thrombomodulin, THBD (gene 7056)
# MEASUREMENT NOTES: BSK_3C_Thrombomodulin: BioMAP Diversity Plus: 3C Assay for Thrombomodulin Biomarker Activity (AID 2283029)
# CONDITIONS USED: primary human endothelial cells (HUVEC); actives raise or lower the signal
The source made the active and inactive calls. Rule for the calls: active = hit-call score of the fitted dose curve at least 0.9, where 1 is the maximum; inactive = score below 0.9.
# output must be one of active, inactive

The examples below pair each entry with its known result.
* Cc1cc(Cl)ccc1OC(C)C(=O)O (stereo not drawn) | inactive
* CCOC(=O)CC(=O)CCl | active
* OCCCCO | inactive
* NC(=O)CCl | inactive
* Nc1c(Oc2ccccc2)cc(O)c2c1C(=O)c1ccccc1C2=O | inactive
* Cc1ccccc1OP(=O)(Oc1ccccc1C)Oc1ccccc1C | inactive

Prompt line: What call does the record list for O=C(O)COc1cc(Cl)c(Cl)cc1Cl ?
Response line: inactive

Prompt line: What call does the record list for Nc1ccc(N)cc1 ?
Response line: inactive
